Listing of entries alongside the reported tissue uptake at 1 h.
test: Biodistribution study with lead-212; type: in vivo, mouse; settings: mouse, kidneys, intravenous, 100 kBq, 1 h p.i.; n = 4; read-out: Kidneys uptake
The answer is to be given in %ID/g; state only the numeric part.

Could you share which tissue uptake at 1 h value was measured for C[C@@H](O)[C@H](NC(=O)[C@@H]1CSSC[C@H](NC(=O)[C@@H](Cc2ccccc2)NC(=O)CN2CCC(NC(=O)CN3CCN(CC(N)=O)CCN(CC(N)=O)CCN(CC(N)=O)CC3)CC2)C(=O)N[C@@H](Cc2ccc(O)cc2)C(=O)N[C@H](Cc2c[nH]c3ccccc23)C(=O)N[C@@H](CCCCN)C(=O)N[C@@H]([C@@H](C)O)C(=O)N1)C(=O)O [[^212Pb]Pb-eSOMA-02, metal not drawn] ? 81.1

Could you share which tissue uptake at 1 h value was measured for C[C@@H](O)[C@H](NC(=O)[C@@H]1CSSC[C@H](NC(=O)[C@@H](Cc2ccccc2)NC(=O)CN2CCN(CC(N)=O)CCN(CC(N)=O)CCN(CC(N)=O)CC2)C(=O)N[C@@H](Cc2ccc(O)cc2)C(=O)N[C@H](Cc2c[nH]c3ccccc23)C(=O)N[C@@H](CCCCN)C(=O)N[C@@H]([C@@H](C)O)C(=O)N1)C(=O)O [[^212Pb]Pb-DOTAM-TATE, metal not drawn, reference compound] ? 53.5

Could you now consider this next compound?
Could you share which tissue uptake at 1 h value was measured for C[C@@H](O)[C@H](NC(=O)[C@@H]1CSSC[C@H](NC(=O)[C@@H](Cc2ccccc2)NC(=O)[C@H]2CC[C@H](CNC(=O)CN3CCN(CC(N)=O)CCN(CC(N)=O)CCN(CC(N)=O)CC3)CC2)C(=O)N[C@@H](Cc2ccc(O)cc2)C(=O)N[C@H](Cc2c[nH]c3ccccc23)C(=O)N[C@@H](CCCCN)C(=O)N[C@@H]([C@@H](C)O)C(=O)N1)C(=O)O [[^212Pb]Pb-eSOMA-01, metal not drawn] ? 78.8

----------
test: Biodistribution study with lead-212; type: in vivo, mouse; details: mouse, pancreas, intravenous, 100 kBq, 1 h p.i.; n = 4; read-out: Pancreas uptake
Outcome Measure: tissue uptake at 1 h

Could you share which tissue uptake at 1 h value was measured for C[C@@H](O)[C@H](NC(=O)[C@@H]1CSSC[C@H](NC(=O)[C@@H](Cc2ccccc2)NC(=O)CN2CCN(CC(N)=O)CCN(CC(N)=O)CCN(CC(N)=O)CC2)C(=O)N[C@@H](Cc2ccc(O)cc2)C(=O)N[C@H](Cc2c[nH]c3ccccc23)C(=O)N[C@@H](CCCCN)C(=O)N[C@@H]([C@@H](C)O)C(=O)N1)C(=O)O [[^212Pb]Pb-DOTAM-TATE, metal not drawn, reference compound] ? 5.19 %ID/g

Could you share which tissue uptake at 1 h value was measured for C[C@@H](O)[C@H](NC(=O)[C@@H]1CSSC[C@H](NC(=O)[C@@H](Cc2ccccc2)NC(=O)[C@H]2CC[C@H](CNC(=O)CN3CCN(CC(N)=O)CCN(CC(N)=O)CCN(CC(N)=O)CC3)CC2)C(=O)N[C@@H](Cc2ccc(O)cc2)C(=O)N[C@H](Cc2c[nH]c3ccccc23)C(=O)N[C@@H](CCCCN)C(=O)N[C@@H]([C@@H](C)O)C(=O)N1)C(=O)O [[^212Pb]Pb-eSOMA-01, metal not drawn] ? 7.86 %ID/g

Could you now consider this next molecule?
Could you share which tissue uptake at 1 h value was measured for C[C@@H](O)[C@H](NC(=O)[C@@H]1CSSC[C@H](NC(=O)[C@@H](Cc2ccccc2)NC(=O)CN2CCC(NC(=O)CN3CCN(CC(N)=O)CCN(CC(N)=O)CCN(CC(N)=O)CC3)CC2)C(=O)N[C@@H](Cc2ccc(O)cc2)C(=O)N[C@H](Cc2c[nH]c3ccccc23)C(=O)N[C@@H](CCCCN)C(=O)N[C@@H]([C@@H](C)O)C(=O)N1)C(=O)O [[^212Pb]Pb-eSOMA-02, metal not drawn] ? 6.41 %ID/g

----------
Listing of entries alongside the reported tissue uptake at 24 h.
assay: Ex vivo biodistribution with lead-203; type: in vivo, mouse; settings: mouse, muscle; 24 h post-injection; n = 4; read-out: Muscle uptake
The answer is to be given in %ID/g; state only the numeric part.

Could you share which tissue uptake at 24 h value was measured for C[C@@H](O)[C@H](NC(=O)[C@@H]1CSSC[C@H](NC(=O)[C@@H](Cc2ccccc2)NC(=O)CN2CCC(NC(=O)CN3CCN(CC(N)=O)CCN(CC(N)=O)CCN(CC(N)=O)CC3)CC2)C(=O)N[C@@H](Cc2ccc(O)cc2)C(=O)N[C@H](Cc2c[nH]c3ccccc23)C(=O)N[C@@H](CCCCN)C(=O)N[C@@H]([C@@H](C)O)C(=O)N1)C(=O)O [[^203Pb]Pb-eSOMA-02, metal not drawn] ? 0.04

***
Could you share which tissue uptake at 24 h value was measured for C[C@@H](O)[C@H](NC(=O)[C@@H]1CSSC[C@H](NC(=O)[C@@H](Cc2ccccc2)NC(=O)[C@H]2CC[C@H](CNC(=O)CN3CCN(CC(N)=O)CCN(CC(N)=O)CCN(CC(N)=O)CC3)CC2)C(=O)N[C@@H](Cc2ccc(O)cc2)C(=O)N[C@H](Cc2c[nH]c3ccccc23)C(=O)N[C@@H](CCCCN)C(=O)N[C@@H]([C@@H](C)O)C(=O)N1)C(=O)O [[^203Pb]Pb-eSOMA-01, metal not drawn] ? 0.18

----------
experiment: Biodistribution study with lead-212; format: in vivo, mouse; conditions: mouse, intestines, intravenous, 24 h block: co-injection of excess (25 nmol) unlabeled peptide; read-out: Intestines uptake
Outcome Measure: tissue uptake at 24 h (%ID/g)
The answer is to be given in %ID/g; state only the numeric part.

Could you share which tissue uptake at 24 h value was measured for C[C@@H](O)[C@H](NC(=O)[C@@H]1CSSC[C@H](NC(=O)[C@@H](Cc2ccccc2)NC(=O)CN2CCC(NC(=O)CN3CCN(CC(N)=O)CCN(CC(N)=O)CCN(CC(N)=O)CC3)CC2)C(=O)N[C@@H](Cc2ccc(O)cc2)C(=O)N[C@H](Cc2c[nH]c3ccccc23)C(=O)N[C@@H](CCCCN)C(=O)N[C@@H]([C@@H](C)O)C(=O)N1)C(=O)O [[^212Pb]Pb-eSOMA-02, metal not drawn] ? 0.03

***
Could you share which tissue uptake at 24 h value was measured for C[C@@H](O)[C@H](NC(=O)[C@@H]1CSSC[C@H](NC(=O)[C@@H](Cc2ccccc2)NC(=O)[C@H]2CC[C@H](CNC(=O)CN3CCN(CC(N)=O)CCN(CC(N)=O)CCN(CC(N)=O)CC3)CC2)C(=O)N[C@@H](Cc2ccc(O)cc2)C(=O)N[C@H](Cc2c[nH]c3ccccc23)C(=O)N[C@@H](CCCCN)C(=O)N[C@@H]([C@@H](C)O)C(=O)N1)C(=O)O [[^212Pb]Pb-eSOMA-01, metal not drawn] ? 0.06

----------
test: LogD7.4 by shake-flask method (n-octanol/PBS); assay type: physicochemical; conditions: ^203Pb-labeled compound; n-octanol/PBS pH 7.4; n = 3
Outcome Measure: logD
I only need the number, thanks.

Could you share which logD value was measured for C[C@@H](O)[C@H](NC(=O)[C@@H]1CSSC[C@H](NC(=O)[C@@H](Cc2ccccc2)NC(=S)Nc2ccc(CC3CN(CC(N)=O)CCN(CC(N)=O)CCN(CC(N)=O)CCN3CC(N)=O)cc2)C(=O)N[C@@H](Cc2ccc(O)cc2)C(=O)N[C@H](Cc2c[nH]c3ccccc23)C(=O)N[C@@H](CCCCN)C(=O)N[C@@H]([C@@H](C)O)C(=O)N1)C(=O)O (stereo partly shown) [[^203Pb]Pb-eSOMA-03, metal not drawn] ? -1.36

----------
experiment: Biodistribution study with lead-212; format: in vivo, mouse; details: mouse, stomach, intravenous, 100 kBq, 1 h p.i.; n = 4; read-out: Stomach uptake
Outcome Measure: tissue uptake at 1 h
Answer by giving the amount and then stating its unit.

Field: example entries. Status: answers known.
Could you share which tissue uptake at 1 h value was measured for C[C@@H](O)[C@H](NC(=O)[C@@H]1CSSC[C@H](NC(=O)[C@@H](Cc2ccccc2)NC(=O)[C@H]2CC[C@H](CNC(=O)CN3CCN(CC(N)=O)CCN(CC(N)=O)CCN(CC(N)=O)CC3)CC2)C(=O)N[C@@H](Cc2ccc(O)cc2)C(=O)N[C@H](Cc2c[nH]c3ccccc23)C(=O)N[C@@H](CCCCN)C(=O)N[C@@H]([C@@H](C)O)C(=O)N1)C(=O)O [[^212Pb]Pb-eSOMA-01, metal not drawn] ? 7.08 %ID/g

Could you share which tissue uptake at 1 h value was measured for C[C@@H](O)[C@H](NC(=O)[C@@H]1CSSC[C@H](NC(=O)[C@@H](Cc2ccccc2)NC(=O)CN2CCC(NC(=O)CN3CCN(CC(N)=O)CCN(CC(N)=O)CCN(CC(N)=O)CC3)CC2)C(=O)N[C@@H](Cc2ccc(O)cc2)C(=O)N[C@H](Cc2c[nH]c3ccccc23)C(=O)N[C@@H](CCCCN)C(=O)N[C@@H]([C@@H](C)O)C(=O)N1)C(=O)O [[^212Pb]Pb-eSOMA-02, metal not drawn] ? 3.74 %ID/g

Could you now consider this next compound?
Could you share which tissue uptake at 1 h value was measured for C[C@@H](O)[C@H](NC(=O)[C@@H]1CSSC[C@H](NC(=O)[C@@H](Cc2ccccc2)NC(=O)CN2CCN(CC(N)=O)CCN(CC(N)=O)CCN(CC(N)=O)CC2)C(=O)N[C@@H](Cc2ccc(O)cc2)C(=O)N[C@H](Cc2c[nH]c3ccccc23)C(=O)N[C@@H](CCCCN)C(=O)N[C@@H]([C@@H](C)O)C(=O)N1)C(=O)O [[^212Pb]Pb-DOTAM-TATE, metal not drawn, reference compound] ? 2.69 %ID/g
